Test system: Gossypium hirsutum
PROTOCOL SUMMARY: Toxicity in Gossypium hirsutum cv. Hakushuu (cotton) assessed as seedling death under green house at 0.5 kg/ha at 25 degC measured after 4 weeks by crop selectivity assay
Format: organism-based
SETUP CONDITIONS: in vivo, 672 h
MEASUREMENT KIND: Activity

SMILES CODE: Cc1c(C(F)(F)F)noc1OCC(=O)N(C)c1ccccc1
Activity: Non-toxic
--
SMILES CODE: CN(C(=O)COc1cc(C(F)(F)F)no1)c1ccccc1
Activity: Non-toxic
--
SMILES CODE: CCc1c(C(F)(F)F)noc1OCC(=O)N(C)c1ccccc1
Activity: Non-toxic
--
SMILES CODE: CN(C(=O)COc1nc2ccccc2s1)c1ccccc1
Activity: Non-toxic
--
SMILES CODE: CN(C(=O)COc1onc(C(F)(F)F)c1-c1ccccc1)c1ccccc1
Activity: Non-toxic

Moving on to the next molecule.
Query: Please supply the value of reported Activity for the item CN(C(=O)COc1nnc(C(F)(F)F)s1)c1ccccc1
Response: Non-toxic
